Below, each entry is listed with its recorded pIC50.
Target: ErbB2 V777L (Homo sapiens (Human), UniProt P04626, V777L)
Sequence (P04626 23-1255 V777L): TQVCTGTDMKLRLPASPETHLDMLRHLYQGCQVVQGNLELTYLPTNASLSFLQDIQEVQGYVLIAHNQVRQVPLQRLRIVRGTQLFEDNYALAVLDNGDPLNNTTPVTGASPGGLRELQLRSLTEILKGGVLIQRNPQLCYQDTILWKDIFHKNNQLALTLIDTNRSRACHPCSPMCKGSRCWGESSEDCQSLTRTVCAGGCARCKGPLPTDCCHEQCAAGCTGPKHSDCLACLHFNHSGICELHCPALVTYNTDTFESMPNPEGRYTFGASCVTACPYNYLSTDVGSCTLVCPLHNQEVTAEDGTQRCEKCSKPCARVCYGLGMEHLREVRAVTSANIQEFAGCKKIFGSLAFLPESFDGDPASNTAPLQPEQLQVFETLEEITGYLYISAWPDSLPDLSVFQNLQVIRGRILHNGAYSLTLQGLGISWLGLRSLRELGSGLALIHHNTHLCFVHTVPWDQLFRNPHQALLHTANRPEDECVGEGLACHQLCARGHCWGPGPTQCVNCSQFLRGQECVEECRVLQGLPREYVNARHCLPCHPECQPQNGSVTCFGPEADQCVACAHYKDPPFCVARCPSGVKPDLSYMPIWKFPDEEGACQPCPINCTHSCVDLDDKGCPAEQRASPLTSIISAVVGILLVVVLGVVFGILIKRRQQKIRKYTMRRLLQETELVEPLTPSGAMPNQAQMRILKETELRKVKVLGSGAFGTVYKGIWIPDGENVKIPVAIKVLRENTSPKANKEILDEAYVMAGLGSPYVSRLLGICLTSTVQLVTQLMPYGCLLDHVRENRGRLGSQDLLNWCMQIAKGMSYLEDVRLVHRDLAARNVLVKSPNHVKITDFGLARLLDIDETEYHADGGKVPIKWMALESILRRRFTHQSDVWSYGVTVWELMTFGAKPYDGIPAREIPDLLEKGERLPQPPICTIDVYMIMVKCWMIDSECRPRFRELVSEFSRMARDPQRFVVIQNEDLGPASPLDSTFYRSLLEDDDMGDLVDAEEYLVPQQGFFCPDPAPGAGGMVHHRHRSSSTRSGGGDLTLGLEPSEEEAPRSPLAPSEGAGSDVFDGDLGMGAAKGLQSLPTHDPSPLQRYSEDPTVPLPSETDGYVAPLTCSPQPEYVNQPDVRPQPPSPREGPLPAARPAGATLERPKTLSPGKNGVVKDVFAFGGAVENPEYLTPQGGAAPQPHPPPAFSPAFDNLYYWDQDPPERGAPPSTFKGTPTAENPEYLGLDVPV
Test: ErbB enzyme assay (CisBio HTRF-KinEASE-TK), ErbB2 V777L
Type: biochemical
pIC50: −log10 of the molar value.
endpoint_name: pIC50

{"columns": ["smiles_text", "endpoint_name", "measured"],
 "data": [
  ["C=CC(=O)N1C2CCC1CN(c1ncc3ncnc(Nc4ccc(Oc5cnc6c(c5)ncn6C)c(C)c4)c3n1)C2", "pIC50", "7.00 to 7.30"],
  ["C=CC(=O)N1CCN(c2ncc3ncnc(Nc4ccc(Oc5ccn6ncnc6c5)c(C)c4F)c3c2F)CC1", "pIC50", "6.30 to 7.00"],
  ["C=CC(=O)N[C@]1(C)CCN(c2ccc3ncnc(Nc4ccc(Oc5ccc6c(c5)nnn6C)c(C)c4F)c3n2)C1", "pIC50", "7.00 to 7.30"]
]}

* * *

pIC50: −log10 of the molar value.
pIC50, EGFR WT (Homo sapiens (Human), UniProt P00533), per-entry values.
endpoint_name: pIC50

{"columns": ["smiles_text", "target_of_assay", "measured"],
 "data": [
  ["C=CC(=O)N1CCN(c2ncc3ncnc(Nc4ccc(Oc5ccc6c(c5)nnn6C)c(C)c4)c3n2)CC[C@@H]1C", "EGFR WT (Homo sapiens (Human), UniProt P00533)", "6.00 to 6.30"],
  ["C=CC(=O)N1CCN(c2ncc3ncnc(Nc4ccc(Oc5ccc6c(c5)nnn6C)c(CC)c4)c3n2)CC1", "EGFR WT (Homo sapiens (Human), UniProt P00533)", "6.30 to 7.00"],
  ["C=CC(=O)N1CCN(c2ccc3ncnc(Nc4ccc(Oc5ccc6c(c5)nnn6C)c(C)c4)c3n2)C[C@H]1C1CC1", "EGFR WT (Homo sapiens (Human), UniProt P00533)", "6.30 to 7.00"]
]}

* * *

Target: ErbB2 V777L (Homo sapiens (Human), UniProt P04626, V777L)
Experiment: ErbB enzyme assay (CisBio HTRF-KinEASE-TK), ErbB2 V777L
Type: biochemical
pIC50: −log10 of the molar value. Where a name gives a salt, the structure may show the parent alone.
Entries and their measured pIC50 follow.

{"columns": ["compound", "pIC50"],
 "data": [
  ["C=CC(=O)N1CCN(c2ccc3ncnc(Nc4ccc(Oc5ccc6c(c5)nnn6C)c(C)c4F)c3n2)C[C@@H]1C [Compound 325]", "6.30 to 7.00"],
  ["C=CC(=O)N1CCC(c2ccc3ncnc(Nc4ccc(Oc5ccc6c(c5)nnn6C)c(C)c4)c3n2)CC1 [Compound 108]", "6.30 to 7.00"],
  ["C=CC(=O)N1CCN(c2ccc3ncnc(Nc4c(OC)cc(Oc5ccc6c(c5)nnn6C)c(C)c4F)c3n2)CC1 [Compound 251]", "6.30 to 7.00"],
  ["C=C1CCN([C@H]2CCN(c3ncc4ncnc(Nc5ccc(Oc6ccn7ncnc7c6)c(C)c5)c4n3)C2)C1=O [Compound 239]", "7.00 to 7.30"],
  ["Cc1cc(Nc2ncnc3cnc(N4CCN(C(=O)/C=C/CN5CCOCC5)CC4)nc23)ccc1Oc1ccc2c(c1)nnn2C [Compound 53, formate]", "6.30 to 7.00"],
  ["C=CC(=O)N1CCN(c2ccc3ncnc(Nc4ccc(Oc5ccc6c(c5)nnn6C(F)F)c(C)c4)c3n2)C[C@H]1C [Compound 320]", "6.30 to 7.00"],
  ["C=CC(=O)N1CCN(c2ncc3ncnc(Nc4ccc(Oc5ccc6c(c5)nnn6C)c(CC)c4)c3n2)CC1 [Compound 114]", "6.30 to 7.00"],
  ["C=CC(=O)N1CCN(c2ncc3ncnc(Nc4ccc(Oc5cc6nnn(C)c6c(F)c5C)c(C)c4)c3n2)C[C@H]1C [Compound 174]", "6.30 to 7.00"],
  ["C=CC(=O)N1CCN(c2ccc3ncnc(Nc4ccc(Oc5ccc6c(c5)nnn6C)c(C)c4)c3n2)C[C@H]1CC [Compound 294]", "6.30 to 7.00"],
  ["C=CC(=O)N1CCN(c2ccc3ncnc(Nc4ccc(Oc5ccc6c(c5)nnn6C)c(C)c4)c3n2)CC[C@@H]1C [Compound 354]", "6.30 to 7.00"],
  ["C=CC(=O)N(C)CCN(C)c1ccc2ncnc(Nc3ccc(Oc4ccc5c(c4)nnn5C)c(C)c3)c2n1 [Compound 76]", "6.30 to 7.00"],
  ["C=CC(=O)N1CCN(c2ncc3ncnc(Nc4ccc(Oc5ccc6c(c5)nnn6C)c(C)c4F)c3n2)C2CC21 (stereo not shown) [Compound 48]", "> 7.30"],
  ["C=CC(=O)N1CCN(c2ccc3ncnc(Nc4ccc(Oc5ccc6c(c5)nnn6C(F)F)c(C)c4F)c3n2)C[C@H]1C [Compound 323]", "6.00 to 6.30"],
  ["C=CC(=O)N(C)C1CC2(C1)CN(c1ncc3ncnc(Nc4ccc(Oc5ccc6c(c5)nnn6C)c(C)c4)c3n1)C2 [Compound 232]", "6.00 to 6.30"],
  ["C=CC(=O)N(C)[C@@H]1CCCN(c2ncc3ncnc(Nc4ccc(Oc5ccc6c(c5)nnn6C)c(C)c4)c3n2)C1 [Compound 129]", "7.00 to 7.30"],
  ["C=CC(=O)N1CCN(c2ccc3ncnc(Nc4cc(C)c(Oc5ccc6c(c5)ncn6C(F)F)cc4OC)c3n2)CC1 [Compound 370]", "7.00 to 7.30"]
]}
